Test system: A549
Experiment: Antiproliferative activity against human A549 cells assessed as growth inhibition after 48 hrs by MTT assay
Format: functional, cell-based
Conditions: A549, 48 h
Measured metric: IC50 (µM)

Worked cases, answers included:
smiles_entry=O=C(Nc1ccncc1)Nc1cc(-c2cncnc2)ccc1OC(F)(F)F target_or_test_system=A549 assay_result=3.75
smiles_entry=COc1cc(NC(=O)Nc2nccs2)cc(-c2cccnc2)c1OC target_or_test_system=A549 assay_result=106
smiles_entry=O=C(Nc1cc(-c2cncnc2)cc(C(F)(F)F)c1)Nc1nccs1 target_or_test_system=A549 assay_result=18.3
smiles_entry=O=C(Nc1ccncc1)Nc1cc(-c2cncnc2)cc(C(F)(F)F)c1 target_or_test_system=A549 assay_result=2.42
smiles_entry=O=C(Nc1nccs1)Nc1cc(-c2cncnc2)ccc1OC(F)(F)F target_or_test_system=A549 assay_result=17.6

(I) COc1cc(NC(=O)Nc2ccncc2)cc(-c2cncnc2)c1OC
(II) CNC(=O)c1cc(Oc2ccc(NC(=O)Nc3ccc(Cl)c(C(F)(F)F)c3)cc2)ccn1
(III) COc1ccc(-c2cc(NC(=O)Nc3ccncc3)cc(C(F)(F)F)c2)cn1
(IV) Cn1cnc(-c2cc(NC(=O)Nc3nccs3)cc(C(F)(F)F)c2)c1
(V) Cn1cnc(-c2ccc(OC(F)(F)F)c(NC(=O)Nc3ccncc3)c2)c1
Lookup: Hey, quick one: sort these by IC50, largest value first please. Answer by naming the labels in the order asked.
Found: III, IV, V, I, II
